test: Determination of logD (1-octanol / phosphate buffer pH 7.4); assay type: physicochemical; settings: 1-octanol/phosphate buffer, pH 7.4, pH 7.4, 1-octanol/phosphate buffer; read-out: Log D, pH 7.4
In this section, each of the molecules is paired with its reported logD.
Hey, just send me the number, nothing else.

INSERT INTO results (molecule, test_result) VALUES
  ('N#CC[C@H]1CN(c2nc(OC[C@@]34CCCN3C[C@H](F)C4)nc3c(F)c(-c4cccc(Cl)c4C4CC4)ncc23)CCN1C(=O)/C=C/CN1C[C@H]2C[C@@H]1CO2', 3),
  ('C[C@H]1CN(C/C=C/C(=O)N2CCN(c3nc(OC[C@@]45CCCN4C[C@H](F)C5)nc4c(F)c(-c5cccc(Cl)c5C(F)(F)F)ncc34)C[C@@H]2CC#N)C[C@H](C)O1', 3.75),
  ('N#CC[C@H]1CN(c2nc(OC[C@@]34CCCN3C[C@H](F)C4)nc3c(F)c(-c4cccc5cccc(F)c45)ncc23)CCN1C(=O)/C=C/CN1CC2CC(C1)O2', 2.87),
  ('Cc1cc(N)nc(C2Cc3nc(OC[C@@]45CCCN4C[C@H](F)C5)nc(N4CCN(C(=O)/C=C/CN(C)C)[C@@H](CC#N)C4)c3CC2C)c1C(F)(F)F (some centres unmarked)', 2.47);

(Q) State the recorded logD for this entry: N#CC[C@H]1CN(c2nc(OC[C@@]34CCCN3C[C@H](F)C4)nc3c(F)c(-c4cccc5cccc(F)c45)ncc23)CCN1C(=O)/C=C/CN1CC2CCC(C1)O2
(A) 2.91
